Where these numbers come from: the supplement of paper PMC8728848

# study_system: Gal(b1-4)GlcNAc(b1-3)Gal(b1-4)GlcNAc(b1-2)Man(a1-3)[Gal(b1-4)GlcNAc(b1-3)Gal(b1-4)GlcNAc(b1-2)Man(a1-6)]Man(b1-4)GlcNAc(b1-4)GlcNAc
# assay_protocol: glycan array binding signal (z-score within array); higher = stronger binding
# condition_description: glycan notation: IUPAC condensed, linker removed
The sample as a whole holds a higher share of the strongest signals than the screen did.
experimental_readout: glycan array binding signal (z-score)
// no unit string in output, number only

Completed entries (count: 2):
{"binder": "SAOUHSC 02783 (Staphylococcus aureus), Q5HD69 (protein) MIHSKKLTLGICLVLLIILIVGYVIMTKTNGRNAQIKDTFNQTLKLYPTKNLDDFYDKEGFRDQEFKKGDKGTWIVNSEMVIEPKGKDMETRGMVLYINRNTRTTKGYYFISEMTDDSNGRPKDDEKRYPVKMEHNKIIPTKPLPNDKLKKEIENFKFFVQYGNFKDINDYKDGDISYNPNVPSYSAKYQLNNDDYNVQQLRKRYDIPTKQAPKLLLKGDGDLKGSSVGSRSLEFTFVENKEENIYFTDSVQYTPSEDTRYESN", "glycan array binding signal (z-score)": 2.58}
{"binder": "Clone646PsrP (Streptococcus pneumoniae) (protein) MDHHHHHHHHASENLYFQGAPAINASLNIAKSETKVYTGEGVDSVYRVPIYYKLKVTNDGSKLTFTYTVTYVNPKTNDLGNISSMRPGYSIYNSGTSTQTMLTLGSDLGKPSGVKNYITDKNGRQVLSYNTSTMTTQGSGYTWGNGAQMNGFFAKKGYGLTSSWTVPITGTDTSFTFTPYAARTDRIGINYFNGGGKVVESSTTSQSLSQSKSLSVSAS", "glycan array binding signal (z-score)": 0.169}

Now for the binder whose glycan array binding signal (z-score) we want.
I would be grateful if you could share the reported glycan array binding signal (z-score) for HA-00510 (Pseudomonas aeruginosa), Q02V39_PSEAB (protein) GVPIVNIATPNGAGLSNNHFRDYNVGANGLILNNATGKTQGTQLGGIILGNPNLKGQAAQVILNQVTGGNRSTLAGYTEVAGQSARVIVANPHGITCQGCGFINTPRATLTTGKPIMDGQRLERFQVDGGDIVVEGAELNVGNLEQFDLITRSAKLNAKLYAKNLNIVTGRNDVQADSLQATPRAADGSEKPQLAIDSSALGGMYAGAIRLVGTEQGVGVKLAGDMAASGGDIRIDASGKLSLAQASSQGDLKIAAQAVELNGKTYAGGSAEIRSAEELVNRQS .
6.41
